# target_or_test_system: T1, human GALR3 receptor (human, UniProt O60755 1-368)
# T1 construct: also called hGALR3; hGalR3
# T1 sequence: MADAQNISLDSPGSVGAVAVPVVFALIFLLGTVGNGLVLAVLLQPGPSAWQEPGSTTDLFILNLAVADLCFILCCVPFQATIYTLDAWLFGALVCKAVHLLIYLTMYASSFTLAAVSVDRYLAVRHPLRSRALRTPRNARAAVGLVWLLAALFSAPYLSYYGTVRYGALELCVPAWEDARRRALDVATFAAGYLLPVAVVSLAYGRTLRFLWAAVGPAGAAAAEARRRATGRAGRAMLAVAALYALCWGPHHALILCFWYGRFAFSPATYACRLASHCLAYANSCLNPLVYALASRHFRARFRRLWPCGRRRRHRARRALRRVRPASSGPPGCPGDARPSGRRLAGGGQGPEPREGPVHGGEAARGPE
# protocol_text: apparent binding affinity; human GALR3 in LM (tk-)

{"binder": "SPVKEKRGWTLNSAGYLLGPHAIDNHRSFHDKYGLA (peptide, UniProt P07480 26-61, looked up, range -7 to +29; also called galanin -7 to +29; Gal -7-29) [(-7) to (+29) galanin, porcine]", "readout_units": "µM", "Ki": 0.0288}
